- measurementTarget: CHIKV p62-E1 (Chikungunya virus)
- protocolDescription: SPR (Biacore T100), IgG captured by anti-human IgG, p62-E1 injected
reportedMetric: t1/2 (min)
One number for each entry, in min.

Use these answered entries as a reference point.
binder="1L1 (antibody, V domains shown) VH: QVQLVQSGPTLVKPTQTLTLTCTFSGFSLSISGVGVGWIRQPPGKALEWLALIYWDDDKRYSPSLKSRLTITKDTSENQVVLTMTNMDPVDTATYYCAHSMTKGGAIYGQAYFEYWGQGTLV VL: PSPALEPDSDVGGYNYVSWYQQHPGKAPKLIIYDVTDRPSGVSNRFSASKSANTASLTISGLQAEDEADYYCSSYTSSST" outputunit=min quantitativereadout=42
binder="2C2 (antibody, V domains shown) VH: QVQLVQSGGGLVQPGRSLTLSCAASGFTFDVYAMHWVRQAPGKGLEWVAGISWNSGSVGYADSMKGRFTISRDNAKNSLYLQINSLRAEDTALYYCAKAFWFGELSGYGMDVWGQGTLVTVSS VL: QAVVTQPPSASGFPGQSVTISCTGTSSDVGSYNYVSWYQQHPGKAPKLIIYAVTRRPSGVPERFSGSKSGNTASLTVSGLQAEDEADYYCTSYAGNNKDVFGTGTKVTVL" outputunit=min quantitativereadout=19

# ---- query binder ----
Value of t1/2 reported for the binder 4J14 (antibody, V domains shown) VH: QVQLVQSGAEVKKPGSSVKVSCKASGGTSSTYAISWVRQAPGQGLEWMGGSIPVFATVNYAQKFQGRLTITADESTSTVYMELSSLRSEDTAVYFCASPYCSSMNCYTTFYYFDFWGQGTLVTVSS VL: QAVVTQPASVFGFPGQSITISCTGTSSDFGTYNYVSWYQQHPGQAPKLMIFDVSNRPSGVSNRFSGSKSGNTASLTISGLQAEDEASYYCSSYTSGSTLYGGGTKLTVL is 8
